assay comment: Clearance in Sprague-Dawley rat at 1 mg/kg, iv
Type: ADME, organism-based
cond: in vivo
Recorded clearance values for a group of molecules are listed next.
Just the number in mL/min/kg, nothing appended.

Sample records with clearance:
[
  {
    "given smiles": "CC(C)n1ncnc1-c1cn2c(n1)-c1ccc(N3CCC[C@H]3C(N)=O)cc1OCC2",
    "measurement units": "mL/min/kg",
    "measured value": 33
  },
  {
    "given smiles": "CC(C)n1ncnc1-c1cn2c(n1)-c1cnc(O[C@@H](C)C(N)=O)cc1OCC2",
    "measurement units": "mL/min/kg",
    "measured value": 62
  },
  {
    "given smiles": "CC(C)n1ncnc1-c1cn2c(n1)-c1cnc(N3CCC[C@H]3C(N)=O)cc1OCC2",
    "measurement units": "mL/min/kg",
    "measured value": 83
  },
  {
    "given smiles": "CC(C)n1ncnc1-c1cn2c(n1)-c1ccc(O[C@@H](C)C(N)=O)cc1OCC2",
    "measurement units": "mL/min/kg",
    "measured value": 10
  }
]

Lab note: next molecule to report on.
Req: Looking for the measured clearance of "CC(C)n1ncnc1-c1cn2c(n1)-c1cnc(N3CCCC3)cc1OCC2" , can you help?
Resp: 125

====

assay comment: Cmax in Beagle dog at 2 mg/kg, po
Type: ADME, organism-based, Canis lupus familiaris
Parameters: dose 2 mg/kg, route oral
cond: in vivo
measured endpoint: Cmax (µM)
Just the number in µM, nothing appended.

Req: Looking for the measured Cmax of "CC(C)n1ncnc1-c1cn2c(n1)-c1ccc(O[C@@H](C)C(N)=O)cc1OCC2" , can you help?
Resp: 2.1

====

assay comment: AUC in Sprague-Dawley rat at 5 mg/kg, po
Type: ADME, organism-based
cond: in vivo
measured endpoint: AUC (µM·h)
Just the number in µM·h, nothing appended.

Req: Looking for the measured AUC of "CC(C)n1ncnc1-c1cn2c(n1)-c1ccc(O[C@@H](C)C(N)=O)cc1OCC2" , can you help?
Resp: 25.4

====

Recorded bioavailability values for a group of molecules are listed next.
assay comment: Oral bioavailability in NCR nude mouse at 25 mg/kg
Type: ADME, organism-based
cond: in vivo
Just the number in %, nothing appended.

[
  {
    "given smiles": "Cc1nc(-c2cn3c(n2)-c2ccc(-c4cnn(C(C)(C)C(N)=O)c4)cc2OCC3)n(C(C)C)n1",
    "measurement units": "%",
    "bioavailability": 100
  }
]

Req: Looking for the measured bioavailability of "CC(C)n1ncnc1-c1cn2c(n1)-c1ccc(O[C@@H](C)C(N)=O)cc1OCC2" , can you help?
Resp: 55

====

assay comment: Cmax in Cynomolgus monkey at 2 mg/kg, po
Format: ADME, organism-based, Macaca fascicularis
Parameters: dose 2 mg/kg, route oral
cond: in vivo
measured endpoint: Cmax (nM)
Just the number in nM, nothing appended.

Req: Looking for the measured Cmax of "CC(C)n1ncnc1-c1cn2c(n1)-c1ccc(O[C@@H](C)C(N)=O)cc1OCC2" , can you help?
Resp: 1500

====

assay comment: Plasma protein binding in CD-1 mouse at 5 uM after 4 hrs by LC-MS/MS analysis
Assay type: ADME, cell-free
cond: CD-1, mouse, read-out: PPB (converted)
measured endpoint: fraction unbound at 4 h, 5 µM

Req: Looking for the measured fraction unbound at 4 h, 5 µM of "CC(C)n1ncnc1-c1cn2c(n1)-c1ccc(O[C@@H](C)C(N)=O)cc1OCC2" , can you help?
Resp: 0.6

====

assay comment: Volume of distribution at steady state in Cynomolgus monkey at 1 mg/kg, iv
Type: ADME, organism-based, Macaca fascicularis
cond: in vivo, read-out: Vdss
measured endpoint: Vd (L/kg)
Just the number in L/kg, nothing appended.

Req: Looking for the measured Vd of "CC(C)n1ncnc1-c1cn2c(n1)-c1ccc(O[C@@H](C)C(N)=O)cc1OCC2" , can you help?
Resp: 1.5

====

measurement target: Cytochrome P450 3A4 (Homo sapiens)
Sequence (P08684 whole entry): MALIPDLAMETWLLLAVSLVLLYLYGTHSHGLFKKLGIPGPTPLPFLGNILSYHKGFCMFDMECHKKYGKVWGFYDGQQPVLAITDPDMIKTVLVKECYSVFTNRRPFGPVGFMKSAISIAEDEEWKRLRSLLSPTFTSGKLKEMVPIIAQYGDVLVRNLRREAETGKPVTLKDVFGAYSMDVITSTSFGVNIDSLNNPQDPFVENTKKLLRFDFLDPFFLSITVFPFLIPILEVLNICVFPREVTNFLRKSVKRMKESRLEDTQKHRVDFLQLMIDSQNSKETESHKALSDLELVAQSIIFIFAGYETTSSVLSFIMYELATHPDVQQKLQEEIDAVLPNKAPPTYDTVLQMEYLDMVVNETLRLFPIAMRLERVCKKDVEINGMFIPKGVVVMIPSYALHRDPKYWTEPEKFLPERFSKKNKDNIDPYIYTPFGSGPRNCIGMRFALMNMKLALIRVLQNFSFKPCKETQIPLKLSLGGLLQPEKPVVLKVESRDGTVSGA
measured endpoint: IC50

Req: Give IC50 (Cytochrome P450 3A4 (Homo sapiens)) of the following compound: "CC(C)n1ncnc1-c1cn2c(n1)-c1ccc(O[C@@H](C)C(N)=O)cc1OCC2"
Resp: > 10 µM

====

assay comment: Volume of distribution at steady state in Sprague-Dawley rat at 1 mg/kg, iv
Type: ADME, organism-based
cond: in vivo, read-out: Vdss
measured endpoint: Vd
A complete answer gives the number and then names the unit.

Req: Looking for the measured Vd of "CC(C)n1ncnc1-c1cn2c(n1)-c1ccc(O[C@@H](C)C(N)=O)cc1OCC2" , can you help?
Resp: 1.5 L/kg

====

assay comment: Thermodynamic solubility of compound at pH 7.4
Format: physicochemical
cond: buffer, read-out: Therm_solubility
measured endpoint: solubility thermodynamic (µg/mL)
Just the number in µg/mL, nothing appended.

Req: Looking for the measured solubility thermodynamic of "CC(C)n1ncnc1-c1cn2c(n1)-c1ccc(O[C@@H](C)C(N)=O)cc1OCC2" , can you help?
Resp: 82

====

measurement target: Phosphatidylinositol 4,5-bisphosphate 3-kinase catalytic subunit alpha isoform (Homo sapiens, UniProt P42336)
Sequence (P42336 whole entry, canonical isoform): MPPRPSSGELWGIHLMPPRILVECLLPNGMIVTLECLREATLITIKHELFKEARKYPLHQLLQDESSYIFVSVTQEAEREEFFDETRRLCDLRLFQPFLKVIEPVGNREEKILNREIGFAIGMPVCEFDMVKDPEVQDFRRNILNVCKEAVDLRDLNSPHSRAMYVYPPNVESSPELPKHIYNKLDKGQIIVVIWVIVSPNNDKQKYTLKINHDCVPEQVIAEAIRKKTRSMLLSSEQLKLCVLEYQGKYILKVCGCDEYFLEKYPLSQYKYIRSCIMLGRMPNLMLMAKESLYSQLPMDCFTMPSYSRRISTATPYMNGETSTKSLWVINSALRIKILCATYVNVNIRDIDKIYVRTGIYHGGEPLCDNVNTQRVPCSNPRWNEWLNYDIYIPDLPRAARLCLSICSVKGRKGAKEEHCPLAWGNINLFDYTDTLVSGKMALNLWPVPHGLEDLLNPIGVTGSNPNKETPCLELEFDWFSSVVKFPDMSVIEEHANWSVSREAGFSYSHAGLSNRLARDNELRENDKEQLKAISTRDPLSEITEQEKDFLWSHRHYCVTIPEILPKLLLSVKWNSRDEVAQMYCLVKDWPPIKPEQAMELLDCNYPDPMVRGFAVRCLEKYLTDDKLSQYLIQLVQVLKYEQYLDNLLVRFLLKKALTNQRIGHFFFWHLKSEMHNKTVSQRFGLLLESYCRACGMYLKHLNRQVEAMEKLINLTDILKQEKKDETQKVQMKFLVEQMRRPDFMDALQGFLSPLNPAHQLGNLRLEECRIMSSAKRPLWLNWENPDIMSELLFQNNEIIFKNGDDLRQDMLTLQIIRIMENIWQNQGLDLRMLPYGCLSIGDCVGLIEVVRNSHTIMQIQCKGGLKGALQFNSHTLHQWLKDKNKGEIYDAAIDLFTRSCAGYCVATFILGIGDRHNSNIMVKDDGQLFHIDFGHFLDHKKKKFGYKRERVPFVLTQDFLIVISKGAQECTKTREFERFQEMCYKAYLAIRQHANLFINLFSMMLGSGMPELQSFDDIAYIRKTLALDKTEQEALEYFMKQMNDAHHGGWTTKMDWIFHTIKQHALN
assay comment: Inhibition of recombinant PI3K alpha (unknown origin) using PIP2 as substrate by fluorescence polarization assay
cond: read-out: Ki(app)
Recorded pKi values for a group of compounds are listed next.
Please express pKi as -log10 of the molar concentration.

Sample records with pKi:
[
  {
    "given smiles": "CNC(=O)[C@@H]1CCCN1c1cc2c(cn1)-c1nc(-c3ncnn3C(C)C)cn1CCO2",
    "pKi": 7.52
  },
  {
    "given smiles": "CC(C)n1ncnc1-c1cn2c(n1)-c1cnc(N3CCC[C@@H]3C(N)=O)cc1OCC2",
    "pKi": 8.49
  },
  {
    "given smiles": "CC[C@H](Oc1ccc2c(c1)OCCn1cc(-c3ncnn3C(C)C)nc1-2)C(N)=O",
    "pKi": 9.30
  },
  {
    "given smiles": "COC(=O)Nc1ccc2c(c1)OCCc1cc(-c3nncn3-c3ccccc3Cl)sc1-2",
    "pKi": 9.00
  }
]

Req: Looking for the measured pKi of "CC(C)n1ncnc1-c1cn2c(n1)-c1cnc(N3CCCC3)cc1OCC2" , can you help?
Resp: 8.89

Req: Looking for the measured pKi of "COc1cc2c(cn1)-c1nc(-c3ncnn3C(C)C)cn1CCO2" , can you help?
Resp: 8.44

Req: Looking for the measured pKi of "CC(C)n1ncnc1-c1cn2c(n1)-c1cnc(O[C@@H](C)C(N)=O)cc1OCC2" , can you help?
Resp: 9.00

Req: Looking for the measured pKi of "CC(C)n1ncnc1-c1cn2c(n1)-c1cnc(OC(C)(C)C(N)=O)cc1OCC2" , can you help?
Resp: 8.51

Req: Looking for the measured pKi of "CC(C)n1ncnc1-c1cn2c(n1)-c1ccc(N3CC[C@H]3C(N)=O)cc1OCC2" , can you help?
Resp: 10.00

Req: Looking for the measured pKi of "CC(C)n1ncnc1-c1cn2c(n1)-c1cnc(N3CCC[C@H]3C(N)=O)cc1OCC2" , can you help?
Resp: 10.00

====

assay comment: AUC in Cynomolgus monkey at 2 mg/kg, po
Assay type: ADME, organism-based, Macaca fascicularis
cond: in vivo
measured endpoint: AUC (µM·h)
Just the number in µM·h, nothing appended.

Req: Looking for the measured AUC of "CC(C)n1ncnc1-c1cn2c(n1)-c1ccc(O[C@@H](C)C(N)=O)cc1OCC2" , can you help?
Resp: 4.8

====

assay comment: Plasma protein binding in Cynomolgus monkey at 5 uM after 4 hrs by LC-MS/MS analysis
Format: ADME, cell-free, Macaca fascicularis
cond: read-out: PPB (converted)
measured endpoint: fraction unbound at 4 h, 5 µM
# output: bare number, no unit

Req: Looking for the measured fraction unbound at 4 h, 5 µM of "CC(C)n1ncnc1-c1cn2c(n1)-c1ccc(O[C@@H](C)C(N)=O)cc1OCC2" , can you help?
Resp: 0.61

====

assay comment: Toxicity in SCID beige mouse xenografted with human KPL4 cells
Assay type: organism-based
cond: in vivo
measured endpoint: MTD (mg/kg)
Just the number in mg/kg, nothing appended.

Req: Looking for the measured MTD of Cc1nc(-c2cn3c(n2)-c2ccc(-c4cnn(C(C)(C)C(N)=O)c4)cc2OCC3)n(C(C)C)n1 [TASELISIB] , can you help?
Resp: 25

====

assay comment: Plasma protein binding in Beagle dog at 5 uM after 4 hrs by LC-MS/MS analysis
Assay type: ADME, cell-free, Canis lupus familiaris
cond: read-out: PPB (converted)
measured endpoint: fraction unbound at 4 h, 5 µM

Req: Looking for the measured fraction unbound at 4 h, 5 µM of "CC(C)n1ncnc1-c1cn2c(n1)-c1ccc(O[C@@H](C)C(N)=O)cc1OCC2" , can you help?
Resp: 0.62

====

measurement target: Cytochrome P450 1A2 (Homo sapiens, UniProt P05177)
Sequence (P05177 whole entry): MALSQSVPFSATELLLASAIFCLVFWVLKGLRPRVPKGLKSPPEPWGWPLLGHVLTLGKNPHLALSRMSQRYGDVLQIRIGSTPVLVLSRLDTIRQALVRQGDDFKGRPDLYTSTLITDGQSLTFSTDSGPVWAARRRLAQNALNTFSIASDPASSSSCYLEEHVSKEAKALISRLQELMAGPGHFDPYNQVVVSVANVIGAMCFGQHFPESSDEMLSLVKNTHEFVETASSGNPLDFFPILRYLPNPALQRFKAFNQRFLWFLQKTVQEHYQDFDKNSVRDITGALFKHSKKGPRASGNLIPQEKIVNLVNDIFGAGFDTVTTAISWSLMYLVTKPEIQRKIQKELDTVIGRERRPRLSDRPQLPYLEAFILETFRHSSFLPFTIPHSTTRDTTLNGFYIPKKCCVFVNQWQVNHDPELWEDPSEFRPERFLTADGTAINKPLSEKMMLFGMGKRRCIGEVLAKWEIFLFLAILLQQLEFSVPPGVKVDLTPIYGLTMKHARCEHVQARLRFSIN
measured endpoint: IC50

Req: Give IC50 (Cytochrome P450 1A2 (Homo sapiens, UniProt P05177)) of the following molecule: "CC(C)n1ncnc1-c1cn2c(n1)-c1ccc(O[C@@H](C)C(N)=O)cc1OCC2"
Resp: > 10 µM
